This collection of values is drawn from the supplement of paper PMC10567573.

B1: C19orf51 (parent)
chain: FAPQTGARPSETFARFCKSQESAL

Variants of: B1
Protocol Description: protein stability index of a GFP-peptide fusion (GPS, HEK-293T) (PSI 1-6); higher = more stable;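 note: lentivirally expressed fusions sorted by FACS into six bins by GFP to DsRed ratio, PSI derived from sequencing read proportions per bin multiplied by bin number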
Conditions: c terminus: a fixed tail appended
Listed variants paired with reported protein stability index
Attribute Measured: protein stability index

>>> meas_value("FAPQTGARPSETFARFCKSQESAK [L24K]")
2.02
>>> meas_value("FAPQTGARPSETEARFCKSQESAL [F13E]")
1.98
>>> meas_value("IAPQTGARPSETFARFCKSQESAL [F1I]")
2.65
>>> meas_value("FAPQTGARPSETFARFCKSQEKAL [S22K]")
1.33
>>> meas_value("FAPQTGARPSCTFARFCKSQESAL [E11C]")
2.86
>>> meas_value("FAPQTGARPSETFARFCKSDESAL [Q20D]")
2.51
>>> meas_value("FAPQTGARPSETFARFCKSQISAL [E21I]")
1.97
>>> meas_value("FAPQTGARPSETFARFCKSQNSAL [E21N]")
1.79
>>> meas_value("FAPQTGARPSETFARFCKSQEFAL [S22F]")
2.18
>>> meas_value("FAPQTGARPSETFARFCKSQESQL [A23Q]")
1.82
>>> meas_value("FALQTGARPSETFARFCKSQESAL [P3L]")
1.5
>>> meas_value("FAPQTGARPSETFARFCKSAESAL [Q20A]")
2.13
>>> meas_value("FAPQTGARPSETFARFCKSQEDAL [S22D]")
2.04
>>> meas_value("FAPQTGERPSETFARFCKSQESAL [A7E]")
1.77
>>> meas_value("FAPQTGARPSETFAVFCKSQESAL [R15V]")
3.42
>>> meas_value("FAPQDGARPSETFARFCKSQESAL [T5D]")
2.37
>>> meas_value("FAPQTGARWSETFARFCKSQESAL [P9W]")
1.65
>>> meas_value("FAPQTGARPSETFARFCKHQESAL [S19H]")
4.27
>>> meas_value("FAPQTGARPSETFARFCKSQESAQ [L24Q]")
1.23
>>> meas_value("FAPQTGARPSETFARFCKSQESFL [A23F]")
2.44
>>> meas_value("FAPQTGARPSETFARFCKSGESAL [Q20G]")
1.84
>>> meas_value("FAPQTGAKPSETFARFCKSQESAL [R8K]")
2.84
>>> meas_value("FAPQTGARPSETFLRFCKSQESAL [A14L]")
2.12
>>> meas_value("FAPQTGARPSETFARFYKSQESAL [C17Y]")
2.92
>>> meas_value("FAPQTGARPSETFARQCKSQESAL [F16Q]")
1.54
>>> meas_value("FAPQTGARPSETFVRFCKSQESAL [A14V]")
2.17
>>> meas_value("FAPQTGARPSETFARFCKSQESAN [L24N]")
2.58
>>> meas_value("WAPQTGARPSETFARFCKSQESAL [F1W]")
2.58
>>> meas_value("FAPQTGDRPSETFARFCKSQESAL [A7D]")
1.59
>>> meas_value("FAPQTGARPSETFARKCKSQESAL [F16K]")
2.31
>>> meas_value("FAPQTGARPSETFAAFCKSQESAL [R15A]")
2.94
>>> meas_value("FAPQTGARPSETIARFCKSQESAL [F13I]")
1.7
>>> meas_value("FAPQTGARPSETFARFCKKQESAL [S19K]")
2.35
>>> meas_value("FAPQTGARPSETFARFHKSQESAL [C17H]")
1.2
>>> meas_value("FAPQTGARPSETFARFCSSQESAL [K18S]")
2.39
>>> meas_value("NAPQTGARPSETFARFCKSQESAL [F1N]")
3.87
>>> meas_value("FAPQTGARPSETFARFCKSQCSAL [E21C]")
1.97
>>> meas_value("FAPQTGMRPSETFARFCKSQESAL [A7M]")
1.77
>>> meas_value("FAPQTGARPSETFARFCKSQEGAL [S22G]")
3.57
>>> meas_value("FAPQTGARPSETFARDCKSQESAL [F16D]")
1.77
>>> meas_value("FAPFTGARPSETFARFCKSQESAL [Q4F]")
1.98
>>> meas_value("FAPQTGARPSEYFARFCKSQESAL [T12Y]")
2.48
>>> meas_value("FAPQTGARPSETPARFCKSQESAL [F13P]")
1.07
>>> meas_value("FAPQTGARPSETFARFCKSKESAL [Q20K]")
1.99
>>> meas_value("FAPQTGARPSENFARFCKSQESAL [T12N]")
2.66
>>> meas_value("FAPQTGAPPSETFARFCKSQESAL [R8P]")
2.83
>>> meas_value("FAPQTGARPSETFQRFCKSQESAL [A14Q]")
2.63
>>> meas_value("FAPQGGARPSETFARFCKSQESAL [T5G]")
3.11
>>> meas_value("FAPQTGARPKETFARFCKSQESAL [S10K]")
2.62
>>> meas_value("FAPQTGARCSETFARFCKSQESAL [P9C]")
3.58
>>> meas_value("FAPQTGARPSETFARFCESQESAL [K18E]")
1.92
>>> meas_value("FASQTGARPSETFARFCKSQESAL [P3S]")
1.61
>>> meas_value("FAPQTGARPSETFARFCKSQESAA [L24A]")
3.59
>>> meas_value("FAPQTKARPSETFARFCKSQESAL [G6K]")
2.51
>>> meas_value("FAPQTGARPSMTFARFCKSQESAL [E11M]")
3.05
>>> meas_value("FAPQTGARPSETFIRFCKSQESAL [A14I]")
3.27
>>> meas_value("FACQTGARPSETFARFCKSQESAL [P3C]")
1.62
>>> meas_value("FAPQTGARPSETYARFCKSQESAL [F13Y]")
1.49
>>> meas_value("FAPQTGARPSETTARFCKSQESAL [F13T]")
1.82
>>> meas_value("KAPQTGARPSETFARFCKSQESAL [F1K]")
3.54
>>> meas_value("FAPQTGARPSETFARFCKSQESHL [A23H]")
3.08
